Molecular target: T1, ZIG-4 (purified, SPR) (C. elegans, UniProt G5ECB1 17-253)
T1 sequence: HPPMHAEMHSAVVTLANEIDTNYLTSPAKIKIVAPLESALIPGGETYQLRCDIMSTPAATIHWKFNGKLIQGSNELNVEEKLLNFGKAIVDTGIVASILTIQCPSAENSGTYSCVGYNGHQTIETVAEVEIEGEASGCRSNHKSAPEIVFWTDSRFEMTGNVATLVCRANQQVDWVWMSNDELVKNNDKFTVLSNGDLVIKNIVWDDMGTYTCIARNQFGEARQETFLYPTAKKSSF
Assay: SPR
observable: Kd (nM)
Please reply with the bare figure in nM and do not write the unit itself.

In: Bench note: what Kd did INS-6 (purified, SPR) (ligand) VPAPGETRACGRKLISLVMAVCGDLCNPQEGKDIATECCGNQCSDDYIRSACCP show?
Out: 0.056
